System: SNB-75
procedure-details: NCI tumour cell line growth inhibition, 48 h
Activity calls are given as the source filed them. Rule as the data show it: active = GI50 up to about 1.1 µM and inactive = higher.
Choose one outcome from this list and give only that: t for active, f for inactive

Reference set, count: 5
{"columns": ["compound", "assigned-category"],
 "data": [
  ["N#CC(c1ccccc1)(c1ccccc1)[C@@H](c1ccccc1)[C@H](Cc1ccccc1)NS(=O)(=O)c1ccccc1", "f"],
  ["C=C1CCC([N+](=O)[O-])[C@](C)(N=O)CC[C@@H]2C1CC2(C)C (stereo partly specified)", "f"],
  ["CCN(C(=O)/C=C/c1ccco1)c1ccccc1", "f"],
  ["Cc1cn([C@H]2C[C@](C)(CO)N(C)O2)c(=O)[nH]c1=O", "f"],
  ["Cc1cc(/N=C/c2ccc(C#N)cc2)n(-c2ccccc2)n1", "f"]
]}

Then there is this compound:
Query :: Record lookup: outcome of this test for "CC(C)=NN/C=N\C(C#N)=C(/N)C#N" ?
Result :: t

* * *

For each of the compounds below, state its GI50.
Tested on: MDA-MB-435
procedure-details: NCI tumour cell line growth inhibition, 48 h
The source made the active and inactive calls. Rule as the data show it: active = GI50 up to about 1.1 µM and inactive = higher.

{"columns": ["compound", "experimental-system", "meas-value"],
 "data": [
  ["COc1ccc(Cn2nc(OCc3ccccn3)c3cc([N+](=O)[O-])ccc32)cc1", "MDA-MB-435", "> 100 µM (inactive)"],
  ["Cc1cc(C)c2c(c1)C(=O)C1(C2)Cc2c(ccc(C)c2C)C1=O (stereo unspecified)", "MDA-MB-435", "> 100 µM (inactive)"],
  ["O=C(Cn1ccnc1[N+](=O)[O-])NCCO", "MDA-MB-435", "> 100 µM (inactive)"]
]}

Hey, quick one: what's GI50 for each of these?
1. COc1cc(OC)c(C/C=C/c2ccccc2)cc1O
2. CCN(CC)CC1CCCCN1CC(=O)N1c2ccccc2C(=O)Nc2cccnc21 (stereo unspecified)
3. CNC(=S)N/N=C/c1ccc([N+](=O)[O-])s1
4. CC(=O)NCCC1CNc2ccccc21 (stereo unspecified)
5. CCN(C(=O)/C=C/c1ccco1)c1ccccc1
6. N#CC(/N=N/c1ccc(Cl)cc1)c1nc2ccccc2o1 (stereo unspecified)
7. CCC(=O)NC(Nc1ccccc1F)(C(F)(F)F)C(F)(F)F
8. COc1ccc(C(CC(C)=O)c2c(O)c3ccccc3oc2=O)cc1OC (stereo unspecified)

Result ::
17 µM (inactive)
63 µM (inactive)
> 10 µM (inactive)
> 100 µM (inactive)
> 100 µM (inactive)
> 100 µM (inactive)
> 100 µM (inactive)
> 100 µM (inactive)

* * *

Tested on: SF-539
procedure-details: NCI tumour cell line growth inhibition, 48 h
Active and inactive are the calls of the source. No stated cut-off is given here; in the data, active = GI50 up to about 1.1 µM and inactive = higher.
measured-endpoint: GI50

{"columns": ["molecule", "experimental-system", "GI50"],
 "data": [
  ["COc1cc2oc3cc(=O)cc4oc(-c5ccccc5)cc(c2c2c1CCC(c1ccccc1)O2)c43 (stereo not given)", "SF-539", "24.5 µM (inactive)"],
  ["Clc1ccc(C[P+](c2ccccc2)(c2ccccc2)c2ccccc2)cc1Cl", "SF-539", "4.4 µM (inactive)"],
  ["CCOP(=O)(OCC)C(NC(=O)OCC(Cl)(Cl)Cl)n1nnc(C(=O)OC)c1C(=O)OC (stereo not given)", "SF-539", "> 100 µM (inactive)"]
]}

Hey, quick one: what's GI50 for each of these?
1. CCOC(=O)c1sc(Nc2cc(Cl)ccc2Cl)nc1C
2. Cn1c(N)c(Cc2ccc(Cl)cc2)c(=O)[nH]c1=O
3. Nc1ccc(Nc2cc(=O)[nH]c(=O)[nH]2)cc1Cl
4. CN(C)c1ccc(/C=N/N=C2\C(=O)Nc3c(Cl)cc(Cl)cc32)cc1
5. CCOP(=O)(OCC)/C(C#N)=C/c1ccc(-c2cc(C(F)(F)F)cc(C(F)(F)F)c2)o1

Result ::
> 100 µM (inactive)
> 100 µM (inactive)
> 100 µM (inactive)
39.5 µM (inactive)
14.9 µM (inactive)

Hey, quick one: what's GI50 for each of these?
1. NC1=NCCC1(c1ccccc1)c1ccccn1 (stereo not given)
2. CSc1ccc(/C=C2\N=C(c3ccccc3)N(/N=C3\C(=O)Nc4ccccc43)C2=O)cc1

Result ::
["> 100 µM (inactive)", "> 100 µM (inactive)"]

Every entry's value here was drawn from ChEMBL document CHEMBL1201862.
